# key: entry, value: EC50
target_entity: human STING (homozygous HAQ allele) (Homo sapiens, UniProt Q86WV6, G230A/H232R/R293Q/R71H)
Construct: THP1-Dual™ Human Monocytes cells with the homozygous HAQ allele, known to be a natural variant allele of STING
Sequence (Q86WV6 whole entry R71H/G230A/H232R/R293Q): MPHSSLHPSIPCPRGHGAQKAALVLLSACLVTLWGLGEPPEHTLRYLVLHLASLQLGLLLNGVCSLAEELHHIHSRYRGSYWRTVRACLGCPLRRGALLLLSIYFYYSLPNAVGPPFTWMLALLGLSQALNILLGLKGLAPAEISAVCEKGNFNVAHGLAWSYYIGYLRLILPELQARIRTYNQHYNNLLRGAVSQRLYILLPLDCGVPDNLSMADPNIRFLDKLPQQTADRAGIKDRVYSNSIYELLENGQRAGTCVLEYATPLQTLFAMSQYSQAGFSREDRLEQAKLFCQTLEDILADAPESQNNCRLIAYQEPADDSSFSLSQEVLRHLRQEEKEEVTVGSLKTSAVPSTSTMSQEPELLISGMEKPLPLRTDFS
assay_details: Activation of human STING signaling in THP1-Dual Human Monocytes cells, IRF3 luciferase reporter induction
details: 24 hours incubation
readout_type: EC50

[
  {
    "compound": "COc1cc2sc(C(=O)CCC(=O)O)cc2c(F)c1OCc1ccccc1COc1c(OC)cc2sc(C(=O)CCC(=O)O)cc2c1F [Compound 211]",
    "val": "< 1 µM"
  },
  {
    "compound": "O=C(O)CCC(=O)c1nc2ccc(-c3ccccc3-c3ccc4nc(C(=O)CCC(=O)O)sc4c3)cc2s1 [Compound 9]",
    "val": "≥ 10 µM"
  },
  {
    "compound": "COc1cc2sc(C(=O)CCC(=O)O)cc2c(F)c1OC/C=C\\COc1c(OC)cc2sc(C(=O)CCC(=O)O)cc2c1F [Compound 204]",
    "val": "< 1 µM"
  },
  {
    "compound": "COC(=O)CCC(=O)c1cc2c(F)c(OCC3(COc4c(OC)cc5sc(C(=O)CCC(=O)OC)cc5c4F)COC3)c(OC)cc2s1 [Compound 262]",
    "val": "≥ 10 µM"
  }
]
